- Test system: HT-29
- test_description: NCI tumour cell line growth inhibition, 48 h
The source made the active and inactive calls. Cut-off read from the data, not from the text of the source: active = GI50 up to about 1.1 µM and inactive = higher.
Choose the fitting class; nothing outside Yes (active), No (inactive) is accepted.

Record excerpt, results attached:
INSERT INTO assay_data (compound, label_class) VALUES
  ('O=C(c1ccc(Cl)cc1)N(C(=S)OCCOc1ccccc1)c1ccccc1', 'No'),
  ('CC(C)c1ccc(O)c(Cc2cc(C(C)C)cc(Cc3cc(C(C)C)ccc3O)c2O)c1', 'No'),
  ('O=C(O)c1c(Br)c(Br)c(Br)c(Br)c1C1c2ccc(O)cc2Oc2cc(O)ccc21', 'No'),
  ('CCc1n[nH]c(=O)n1N1C(=O)CCC1=O', 'No'),
  ('COC(=O)C1(C(=O)OC)CC2=C(S(=O)(=O)c3ccccc3)C[C@H](S(=O)(=O)c3ccccc3)[C@H]2C1', 'No'),
  ('FC(F)(F)c1ccc2nc(Sc3ccccn3)cnc2c1', 'No'),
  ('CN(C)Cc1cc(C(F)(F)F)ccc1C(O)(c1ccccc1)c1ccccc1', 'No'),
  ('CCCCCCCC(=O)OCC1OC(OC)C(NC(=O)N(CCCl)N=O)C(O)C1O (stereo unspecified)', 'No'),
  ('CC(C)C(OC(=O)c1ccc(NCC2=CC(=O)C=CC2=O)cc1)C(C)C', 'No'),
  ('CC(C)N1CC2CC(CN(C(=O)c3ccc(Cl)cc3)C2)C1', 'No');

Short answer needed: outcome of this test for COc1ccc(C=C2C(=O)NC(=S)NC2=O)c2ccccc12 ?
No

Short answer needed: outcome of this test for CN1C/C(=C\c2cccs2)C2=NN(c3ccccc3)C(c3cccs3)C2C1 (stereo unspecified) ?
No

Short answer needed: outcome of this test for CCCC(=O)Oc1ccc(/C=N/NC(N)=S)nc1 ?
No

Short answer needed: outcome of this test for O=C(N/C=C1\C(=O)Oc2ccccc2C1=O)Nc1ccccc1 ?
No

Short answer needed: outcome of this test for c1ccc2c(c1)Nc1c3ccccc3nc3cccc-2c13 ?
Yes

Short answer needed: outcome of this test for CC/C=C\C/C=C\C/C=C\CCCCCCCC(=O)OC [METHYL LINOLENATE] ?
No

Short answer needed: outcome of this test for O=C(NN1C(=O)CSC1c1cccc(F)c1)c1ccncc1 (stereo unspecified) ?
No

====

- Tested on: HL-60
- test_description: NCI tumour cell line growth inhibition, 48 h
Activity calls are given as the source filed them. Rule as the data show it: active = GI50 up to about 1.1 µM and inactive = higher.
Choose the fitting class; nothing outside active, inactive is accepted.

INSERT INTO assay_data (compound, tgt, label_class) VALUES
  ('OC(CC(O)(C(F)(F)F)C(F)(F)F)c1ccc(C(O)CC(O)(C(F)(F)F)C(F)(F)F)cc1 (stereo not drawn)', 'HL-60', 'inactive'),
  ('C#CCCOC1(OC)N=NC(C)(C)O1 (stereo not drawn)', 'HL-60', 'inactive');

Short answer needed: outcome of this test for Cc1cc(O)nc(CNC(=O)c2ccc3ccccc3c2)n1 ?
inactive

Short answer needed: outcome of this test for CCCCCCCC(=O)OCC1OC(OC)C(NC(=O)N(CCCl)N=O)C(O)C1O (stereo not drawn) ?
inactive

Short answer needed: outcome of this test for O=C1CCC2(CCO1)OCCO2 ?
inactive

Short answer needed: outcome of this test for CC(C)NC(=O)OCc1c(COC(=O)NC(C)C)c(-c2ccc[n+](COC(=O)C3CCCCC3)c2)n2c1CCC2 ?
inactive

Short answer needed: outcome of this test for NC(=O)/N=C1/CCC2C3CCCC2C13 ?
inactive

Short answer needed: outcome of this test for CC(C)C(=O)/C=C/c1ccc(Cl)c(Cl)c1 ?
inactive

Short answer needed: outcome of this test for C[n+]1c2ccccc2n2c3ccccc3c(NCCCN3CCOCC3)c(C#N)c21 ?
inactive

Short answer needed: outcome of this test for CC[C@@H](/C=C\CCC(=O)C[C@H](O)CCC=C(C)C)O[Si](C(C)C)(C(C)C)C(C)C ?
inactive

Short answer needed: outcome of this test for Nc1ccccc1C(=O)/C=C/c1c(O)ccc2ccccc12 ?
inactive

Short answer needed: outcome of this test for Cn1ncc2c(Cl)ncnc21 ?
inactive

Short answer needed: outcome of this test for COc1cc(Cl)c(CC(=O)c2c[nH]c3ccccc23)cc1OC ?
inactive

Short answer needed: outcome of this test for COc1ccc(O)c(/C=N\Nc2ccccc2)c1 ?
inactive

Short answer needed: outcome of this test for CN1C(=O)C(C(=O)Nc2ccccn2)C2C[C@@]1(C)Oc1ccccc12 (stereo partly drawn) ?
inactive

Short answer needed: outcome of this test for CN1CN(c2ccccc2)C2(CCN(CCCSc3ccccc3NC(=O)/C=C/c3ccccc3)CC2)C1=O ?
inactive

Short answer needed: outcome of this test for N#C/C(C(=S)Nc1ccccc1)=C(/N)N1CCCC1 ?
inactive

FYI, the data here is from ChEMBL document CHEMBL1201862.
